This collection of values is drawn from patent US9149536B2.

# maps each entry to its MIC E. coli AG100B
- Tested on: E. coli AG100B
- method.summary: MIC, double-microdilution, E. coli AG100B
- Type: cell-based, Escherichia coli
- condition.info: Table 4; kanamycin resistant, APH(3′)-I
property.measured: MIC E. coli AG100B

{"compound": "NCC1OC(OC2C(C(=O)Nc3ccc(-c4cn(CCCN5CCN(c6cc7c(cc6F)c(=O)c(C(=O)O)cn7C6CC6)CC5)nn4)cc3)OC(OC3C(O)C(N)CC(N)C3OC3OC(CN)C(O)C(O)C3N)C2O)C(N)C(O)C1O (centres unmarked)", "value.observed": "12 µg/mL"}
{"compound": "NCC1OC(OC2C(C(=O)NCc3cn(CC(O)CN4CCN(c5cc6c(cc5F)c(=O)c(C(=O)O)cn6C5CC5)CC4)nn3)OC(OC3C(O)C(N)CC(N)C3OC3OC(CN)C(O)C(O)C3N)C2O)C(N)C(O)C1O (centres unmarked)", "value.observed": "12 µg/mL"}

----------
- Test system: E. coli ATCC 25922
- method.summary: MIC, double-microdilution, E. coli ATCC 25922
- Type: cell-based, Escherichia coli
- condition.info: Table 4

{"molecule": "NCC1OC(OC2C(C(=O)Nc3ccc(-c4cn(CCCCCCN5CCN(c6cc7c(cc6F)c(=O)c(C(=O)O)cn7C6CC6)CC5)nn4)cc3)OC(OC3C(O)C(N)CC(N)C3OC3OC(CN)C(O)C(O)C3N)C2O)C(N)C(O)C1O (stereo not drawn)", "unit.label": "µg/mL", "MIC E. coli ATCC 25922": 6}
{"molecule": "NCC1OC(OC2C(C(=O)NCc3cn(CCCN4CCN(c5cc6c(cc5F)c(=O)c(C(=O)O)cn6C5CC5)CC4)nn3)OC(OC3C(O)C(N)CC(N)C3OC3OC(CN)C(O)C(O)C3N)C2O)C(N)C(O)C1O (stereo not drawn)", "unit.label": "µg/mL", "MIC E. coli ATCC 25922": 6}
{"molecule": "NCC1OC(OC2C(C(=O)Nc3ccc(-c4cn(CCOCCN5CCN(c6cc7c(cc6F)c(=O)c(C(=O)O)cn7C6CC6)CC5)nn4)cc3)OC(OC3C(O)C(N)CC(N)C3OC3OC(CN)C(O)C(O)C3N)C2O)C(N)C(O)C1O (stereo not drawn)", "unit.label": "µg/mL", "MIC E. coli ATCC 25922": 12}
{"molecule": "NCC1OC(OC2C(C(=O)Nc3ccc(-c4cn(CC(O)CN5CCN(c6cc7c(cc6F)c(=O)c(C(=O)O)cn7C6CC6)CC5)nn4)cc3)OC(OC3C(O)C(N)CC(N)C3OC3OC(CN)C(O)C(O)C3N)C2O)C(N)C(O)C1O (stereo not drawn)", "unit.label": "µg/mL", "MIC E. coli ATCC 25922": 3}
{"molecule": "NCC1OC(OC2C(C(=O)Nc3ccc(-c4cn(CCCCCN5CCN(c6cc7c(cc6F)c(=O)c(C(=O)O)cn7C6CC6)CC5)nn4)cc3)OC(OC3C(O)C(N)CC(N)C3OC3OC(CN)C(O)C(O)C3N)C2O)C(N)C(O)C1O (stereo not drawn)", "unit.label": "µg/mL", "MIC E. coli ATCC 25922": 6}
{"molecule": "NCC1OC(OC2C(C(=O)NCc3cn(Cc4ccc(CN5CCN(c6cc7c(cc6F)c(=O)c(C(=O)O)cn7C6CC6)CC5)cc4)nn3)OC(OC3C(O)C(N)CC(N)C3OC3OC(CN)C(O)C(O)C3N)C2O)C(N)C(O)C1O (stereo not drawn)", "unit.label": "µg/mL", "MIC E. coli ATCC 25922": 6}
{"molecule": "NCC1OC(OC2C(C(=O)Nc3ccc(-c4cn(CCN5CCN(c6cc7c(cc6F)c(=O)c(C(=O)O)cn7C6CC6)CC5)nn4)cc3)OC(OC3C(O)C(N)CC(N)C3OC3OC(CN)C(O)C(O)C3N)C2O)C(N)C(O)C1O (stereo not drawn)", "unit.label": "µg/mL", "MIC E. coli ATCC 25922": 6}
{"molecule": "NCC1OC(OC2C(C(=O)Nc3ccc(-c4cn(CCCN5CCN(c6cc7c(cc6F)c(=O)c(C(=O)O)cn7C6CC6)CC5)nn4)cc3)OC(OC3C(O)C(N)CC(N)C3OC3OC(CN)C(O)C(O)C3N)C2O)C(N)C(O)C1O (stereo not drawn)", "unit.label": "µg/mL", "MIC E. coli ATCC 25922": 3}
{"molecule": "NCC1OC(OC2C(C(=O)NCc3cn(CCN4CCN(c5cc6c(cc5F)c(=O)c(C(=O)O)cn6C5CC5)CC4)nn3)OC(OC3C(O)C(N)CC(N)C3OC3OC(CN)C(O)C(O)C3N)C2O)C(N)C(O)C1O (stereo not drawn)", "unit.label": "µg/mL", "MIC E. coli ATCC 25922": 6}
